molecular target: B. malayi iPGM (Brugia malayi); test: biochemical; conditions: read-out: B. malayi iPGM Max Inhibition
Sequence (Q4VWF8 whole entry, looked up): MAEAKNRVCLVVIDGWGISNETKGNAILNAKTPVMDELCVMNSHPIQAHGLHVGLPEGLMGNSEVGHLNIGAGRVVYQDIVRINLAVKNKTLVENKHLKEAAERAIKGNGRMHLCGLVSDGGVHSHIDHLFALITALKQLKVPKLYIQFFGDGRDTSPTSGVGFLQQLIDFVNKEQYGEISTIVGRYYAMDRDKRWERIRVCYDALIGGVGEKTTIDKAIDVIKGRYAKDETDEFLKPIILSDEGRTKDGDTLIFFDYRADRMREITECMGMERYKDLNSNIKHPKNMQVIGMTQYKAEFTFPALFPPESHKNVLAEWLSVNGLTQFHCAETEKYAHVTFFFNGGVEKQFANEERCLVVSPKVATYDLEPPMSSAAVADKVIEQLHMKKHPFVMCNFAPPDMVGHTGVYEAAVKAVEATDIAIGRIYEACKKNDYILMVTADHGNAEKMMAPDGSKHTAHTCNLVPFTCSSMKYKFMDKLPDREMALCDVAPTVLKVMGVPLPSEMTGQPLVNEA
Where a SMILES comes first, the peptide text is derived from it. Bridges are numbered along the chain shown (N, C = ends). [ ]: non-standard residue; d: D form.
Recorded endpoint: Emax (%)
Please reply with the bare figure in % and do not write the unit itself.

Below, each entry is followed by its recorded Emax result.
Compound	Emax (%)
CC(C)C[C@H](NC(=O)[C@H](Cc1ccc(O)cc1)NC(=O)[C@@H]1CSCC(=O)N[C@H](Cc2ccc(O)cc2)C(=O)N[C@@H](CC(=O)O)C(=O)N[C@@H](Cc2ccc(O)cc2)C(=O)N2CCC[C@H]2C(=O)NCC(=O)N[C@@H](CC(=O)O)C(=O)N[C@@H](Cc2ccc(O)cc2)C(=O)N1)C(=O)N[C@@H](Cc1ccc(O)cc1)C(=O)NCC(N)=O	88.2
CC[C@H](C)[C@@H]1NC(=O)[C@H](CCC(=O)O)NC(=O)[C@@H]2CCCN2C(=O)[C@H](C)NC(=O)[C@H](CC(N)=O)NC(=O)[C@@H]2CCCN2C(=O)[C@H](Cc2c[nH]c3ccccc23)NC(=O)[C@H](CO)NC(=O)[C@@H](Cc2ccc(O)cc2)NC(=O)CSC[C@@H](C(=O)N[C@@H](CS)C(=O)NCC(N)=O)NC(=O)[C@H](CCCCN)NC(=O)[C@H](Cc2c[nH]c3ccccc23)NC1=O [Bm-1] ({CH2CO}-[dY]SWPNAPEIWKCCG-NH2; thioether N-12)	82.8
CC(C)C[C@@H]1NC(=O)[C@@H](Cc2ccc(O)cc2)NC(=O)CSC[C@@H](C(=O)N[C@@H](CC(N)=O)C(=O)N[C@H](C(=O)N[C@@H](CS)C(=O)NCC(N)=O)[C@@H](C)O)NC(=O)[C@H](CC(N)=O)NC(=O)[C@@H]2CCCN2C(=O)[C@H](Cc2c[nH]c3ccccc23)NC(=O)[C@H](CCC(=O)O)NC1=O [Bm-4] ({CH2CO}-[dY]LEWPNCNTCG-NH2; thioether N-7)	86.3
CC[C@H](C)[C@@H]1NC(=O)[C@H](CCCNC(=N)N)NC(=O)[C@H](Cc2ccccc2)NC(=O)[C@@H]2CCCN2C(=O)[C@H](CC(N)=O)NC(=O)[C@H](C)NC(=O)[C@H](CC(C)C)NC(=O)[C@H]([C@@H](C)O)NC(=O)[C@H]([C@@H](C)CC)NC(=O)[C@H](Cc2ccc(O)cc2)NC(=O)CSC[C@@H](C(=O)NCC(N)=O)NC(=O)[C@H](Cc2c[nH]cn2)NC(=O)[C@H](CC(C)C)NC1=O [Ce-3] ({CH2CO}-YITLANPFRILHCG-NH2; thioether N-13)	13.3

For the compound shown here, NC(=O)[C@H](Cc1ccc(O)cc1)NC(=O)[C@@H]1CSCC(=O)N[C@H](Cc2ccc(O)cc2)C(=O)N[C@@H](CC(=O)O)C(=O)N[C@@H](Cc2ccc(O)cc2)C(=O)N2CCC[C@H]2C(=O)NCC(=O)N[C@@H](CC(=O)O)C(=O)N[C@@H](Cc2ccc(O)cc2)C(=O)N1 [Ce-2f] ({CH2CO}-[dY]DYPGDYCY-NH2; thioether N-8) , give the reported Emax.
14.8

For the compound shown here, CC(C)C[C@@H]1NC(=O)[C@@H](Cc2ccc(O)cc2)NC(=O)CSC[C@@H](C(=O)N[C@@H](CC(N)=O)C(=O)N[C@H](C(=O)N[C@@H](CS)C(N)=O)[C@@H](C)O)NC(=O)[C@H](CC(N)=O)NC(=O)[C@@H]2CCCN2C(=O)[C@H](Cc2c[nH]c3ccccc23)NC(=O)[C@H](CCC(=O)O)NC1=O [Bm-4a] ({CH2CO}-[dY]LEWPNCNTC-NH2; thioether N-7) , give the reported Emax.
88

All figures here come from patent US20200399318A1.
